Where these numbers come from: patent US20250101127A1

- Target: T1, MUC1 (Mucin-1) as expressed by human cancer cell lines (human, UniProt P15941 24-1255)
- T1 construct: whole, on cells; Endogenous antigen on the cell surface (flow cytometry) or in cell lysates (immunoprecipitation, western blot); also called MUC1 antigen; antigen recognized by the MP1 monoclonal antibody
- T1 sequence (P15941 24-1255): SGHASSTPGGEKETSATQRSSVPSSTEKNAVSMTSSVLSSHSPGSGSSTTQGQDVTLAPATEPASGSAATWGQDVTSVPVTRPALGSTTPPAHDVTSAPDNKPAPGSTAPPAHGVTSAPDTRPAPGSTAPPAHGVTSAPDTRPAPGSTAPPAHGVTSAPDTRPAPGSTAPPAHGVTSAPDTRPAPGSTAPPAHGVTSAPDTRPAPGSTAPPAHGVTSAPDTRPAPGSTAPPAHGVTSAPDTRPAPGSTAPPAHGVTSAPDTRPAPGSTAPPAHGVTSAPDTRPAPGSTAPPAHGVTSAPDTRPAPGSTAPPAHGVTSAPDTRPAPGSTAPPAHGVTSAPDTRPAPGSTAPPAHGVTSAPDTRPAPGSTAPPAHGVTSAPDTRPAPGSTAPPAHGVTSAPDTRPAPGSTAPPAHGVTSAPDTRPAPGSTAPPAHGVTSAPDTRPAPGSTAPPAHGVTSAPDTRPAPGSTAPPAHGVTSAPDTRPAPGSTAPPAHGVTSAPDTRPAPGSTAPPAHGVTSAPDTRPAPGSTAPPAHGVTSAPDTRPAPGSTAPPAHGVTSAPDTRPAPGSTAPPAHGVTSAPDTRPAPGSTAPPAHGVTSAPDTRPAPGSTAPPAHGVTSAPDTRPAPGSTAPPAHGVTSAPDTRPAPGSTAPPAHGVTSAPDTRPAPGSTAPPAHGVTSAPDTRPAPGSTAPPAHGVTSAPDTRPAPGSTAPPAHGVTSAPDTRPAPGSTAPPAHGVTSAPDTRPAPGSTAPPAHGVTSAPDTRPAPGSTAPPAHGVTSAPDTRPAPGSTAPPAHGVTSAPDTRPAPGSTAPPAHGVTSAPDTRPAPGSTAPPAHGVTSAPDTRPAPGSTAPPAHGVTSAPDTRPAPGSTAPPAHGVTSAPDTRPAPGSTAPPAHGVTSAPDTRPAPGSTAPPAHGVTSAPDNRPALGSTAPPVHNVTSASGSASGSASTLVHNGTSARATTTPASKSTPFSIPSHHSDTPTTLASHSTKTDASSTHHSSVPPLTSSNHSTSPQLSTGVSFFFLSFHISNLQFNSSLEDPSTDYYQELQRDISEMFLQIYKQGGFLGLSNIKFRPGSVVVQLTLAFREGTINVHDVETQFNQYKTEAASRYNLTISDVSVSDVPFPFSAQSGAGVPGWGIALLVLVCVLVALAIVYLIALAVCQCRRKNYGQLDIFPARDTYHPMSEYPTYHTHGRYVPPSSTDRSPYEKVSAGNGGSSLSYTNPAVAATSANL
- Experiment Summary: flow cytometry, Capan-2 cells stained with transient-expression culture solution; positive rate against the negative control
Test Readout: Capan-2 cell surface binding (%)
Numbers only, in %.

# count of solved cases: 2
Lookup: Capan-2 cell surface binding (%) for humanized MP1 antibody VH1/VL5 (antibody, V domains shown, tested as ExpiCHO-S culture solution) VH: EVKVVESGGGLVQPGRSLRLSCTASGITFSDYWMNWVRQAPGKGLEWVGQIRNKPYNYETYYSQSVKGRFTISRDDSKSIAYLQMSSLKTEDTAVYYCTWAMITSDGYAMDYWGQGTLVTVSS VL: EIVLTQSPGTLSLSPGERATLSCRASQSVLLSSNQKNYLAWYQQKPGQAPRLLIYWASSRETGIPDRFSGSGSGTDFTLTISRLEPEDFAVYYCQQSFSYPLTFGQGTKLEIK ?
Found: 27.2

Lookup: Capan-2 cell surface binding (%) for humanized MP1 antibody VH1/VL1 (antibody, V domains shown, tested as ExpiCHO-S culture solution) VH: EVKVVESGGGLVQPGRSLRLSCTASGITFSDYWMNWVRQAPGKGLEWVGQIRNKPYNYETYYSQSVKGRFTISRDDSKSIAYLQMSSLKTEDTAVYYCTWAMITSDGYAMDYWGQGTLVTVSS VL: DIVMTQSPDSLAVSLGERATISCKSSQSLLLSSNQKNYLAWYQQKPGQPPKLLIYWASTRESGVPDRFSGSGSGTEFTLTISSVQAEDVAVYYCQQCFSYPLTFGQGTKLEIK ?
Found: 7.95

Here's the next entry for you.
Lookup: Capan-2 cell surface binding (%) for humanized MP1 antibody VH1/VL4 (antibody, V domains shown, tested as ExpiCHO-S culture solution) VH: EVKVVESGGGLVQPGRSLRLSCTASGITFSDYWMNWVRQAPGKGLEWVGQIRNKPYNYETYYSQSVKGRFTISRDDSKSIAYLQMSSLKTEDTAVYYCTWAMITSDGYAMDYWGQGTLVTVSS VL: EIVMTQSPGTLSLSPGERATLSCRSSQSLLLSSNQKNYLAWYQQKPGQAPRLLIYWASTRESGIPDRFSGSGSGTDFTLTISRVEPEDFAVYYCQQCFSYPLTFGQGTKLEIK ?
Found: 15.8
